Test system: CLL patient samples
Experiment: Ex vivo CLL patient samples, antileukemic activity
Type: cell-based
Settings: Homo sapiens, BM-311, NOTCH1, ATM, Stage 2 (Relapsed)
assay_readout: pIC50
Entry type: numeric. Quantity: pIC50, the -log10 of concentration in molar units.

# lookup: pIC50 of C=CC(=O)N[C@@H]1CCCN(Cc2ccnc(C(=O)Nc3ccc(-c4cc5c(N6CCOCC6)ncnc5[nH]4)cc3)c2)C1 [Compound A]
6.44

---

Tested on: SUDHL8
Experiment: DLBCL cell proliferation (Cell Titer Glo)
Assay type: cell-based
Details: Homo sapiens, SU-DHL-8, 96 h; SUDHL8, GCB; four days; read-out: Average IC50 ± Standard Deviation
assay_readout: IC50 (nM)
State just the number; it will be interpreted in nM.

What IC50 appears in the records for this compound with SUDHL8? C=CC(=O)N[C@@H]1CCCN(Cc2ccnc(C(=O)Nc3ccc(-c4cc5c(N6CCOCC6)ncnc5[nH]4)cc3)c2)C1
601
